Reported values of apparent KD of K4 kissing-loop reporter for individual entries
- System: K4 kissing-loop RNA reporter
- test_name: apparent KD of K4 kissing-loop reporter; higher = weaker reporter binding
- test_parameters: Eterna round: R107; input ligand: FMN 200 uM
Answer format: numeric, nM implied, no suffix.

record_sequence	measure_unit	quantitative_readout
GGAUUGCCAGUGAUGUUGGCAUAAACUGAAGGAGCGCGUGAAAACGCAGGUAGGUCGCAGAACCUUGCCAACUAUAUUAUUUACC [Ex Arginine A K4 22]	nM	111
GAGAACUCUUACGAUACCAGCCGGAGUGAUGUUCCGCGCUUGGACGUAGUAACCCGCACCGGCCCUUGGCAGCGUGGAUCCUAUG [Bibiinor]	nM	91.1

As a next step, examine the sequence that follows.
Give recorded apparent KD of K4 kissing-loop reporter with K4 kissing-loop RNA reporter for the following sequence: AGCUCAGAGUGACUCGAUAAGAGUCACAAACGAGGACCGGUACGGCCGCCACUCGAAAUAACGAGAGUGAUGUUCUCGCUGGGCA [FiskerMod 1 - Jieux - Same State Tryptophan A]
829

* * *

Here, each record is paired with measured apparent KD of MS2 coat protein data.
- Test system: MS2 coat protein
- test_name: apparent KD of MS2 coat protein; designed switch direction (-1 OFF switch, 1 ON switch): 1; higher = weaker reporter binding
- test_parameters: input ligand: none
Write the answer as a number in µM, unit excluded.

Guide cases for apparent KD of MS2 coat protein, answers given:
record_sequence	measure_unit	apparent KD of MS2 coat protein
UCGGGCGUACUUGCUGACAUGAGGAUCACCCAUGUGAUUGGGCAGGAUAUGGUUCCGUUUCGGUUCCAGAAGGUCCUCGGUGCU [salish99_SSNG3_r04_315] (Eterna round: R96, puzzle: Same State NG 3)	µM	0.347
CAGCGCUGUCGAGAGGAUAUGCGGUGAUGGACAUGAGGAUCACCCAUGUUAGCGAUAGCAUUACGGUAGAAGGCUCUACAGCUGC [Soteed] (Eterna round: R96, puzzle: Same State 2)	µM	0.0474
AAAGAAACUACAGGAUAUGCGUGGGAAAGAUAGGCAGAAGGGUGGAUAAUAAAUUCCAGCACAUGAGGAUCACCCAUGUACUGG [Ince] (Eterna round: R96, puzzle: Same State NG 1)	µM	0.0227
AGCAAAGCGACAGGAUAUGGUAAGGAUCUCUUACCAGAAGGGUCAAGUGCAUGACAUGAGGAUCACCCAUGUAGGUUGUUUACC [Eternabot solution 44] (Eterna round: R96, puzzle: Same State NG 1)	µM	0.0265

Now look at this entry.
Give the measured apparent KD of MS2 coat protein of GUACAUAUCAGAGGAUAUCACGUCGAUUAGACGUGAGAAGGCUGAUCACACAUGAAUAUUAAUACAUGAGGAUCACCCAUGUAC [SSNG1/13-A2] (Eterna round: R96, puzzle: Same State NG 1) .
0.0372

* * *

- Tested on: MS2 coat protein
- test_name: apparent KD of MS2 coat protein; designed switch direction (-1 OFF switch, 1 ON switch): -1; higher = weaker reporter binding
- test_parameters: Eterna round: R95; input ligand: FMN 200 uM
recorded_endpoint: apparent KD of MS2 coat protein (nM)
The figure you give is taken to be in nM; do not add the unit.

record_sequence	measure_unit	apparent KD of MS2 coat protein
GGAUCGAAAGUGAGGAUAUACCACUGGAUACAGUGGUAGAAGGCACAUGAGGAUCACCCAUGUCUCUACGAUCC [Fiskers BMX 4 - 42] (puzzle: Brourd's mod of Exclusion 4)	nM	39.9
AGUAGUAGUUUCCGUUCUUACAUGAGGAUCACCCAUGUUUCUUGACGUGCACGCGAUGCUCGUCAGACUACCAGAUG [salish99_TOv1_r3_056] (puzzle: Sensor v3, turn-off variant 1)	nM	39.3

# evaluate next
Reported apparent KD of MS2 coat protein for AAGUACCGUCACGAUAGUGAUGGUACAGCAAGCAGUGAAACAUGAGGAUCACCCAUGUCCUCAAUUGCUCGUCUUAU [Sensor 3 - 78] (puzzle: Sensor v3, turn-off variant 2) : what is it?
43.3

* * *

- Test system: MS2 coat protein
- test_name: apparent KD of MS2 coat protein; designed switch direction (-1 OFF switch, 1 ON switch): 1; higher = weaker reporter binding
- test_parameters: Eterna round: R95; input ligand: FMN 200 uM
recorded_endpoint: apparent KD of MS2 coat protein (nM)
Your answer should be a plain number; it is taken to be in nM.

Please tell me: apparent KD of MS2 coat protein of UGCUAUUGUAUAUUGGUGCAAGCUUUUUGACAUGAGGAUCACCCAUGUACUCGUCAUUAGCGCAGUCCGUAGACUGC (puzzle: Sensor for hsa-mir-208a) , system MS2 coat protein?
74.2

Repeat for the following sequence: AGUUGUGGAAAACUAUAGCAAAAGCAUGUACAUGAGGAUCACCCAUGUCAUGUACAAGCUUUUUGCUCGUCUUAUGG [ak 3 mod of one Eli's designs.] (puzzle: Sensor for hsa-mir-208a)
25

Another sequence to check: AGUCCAGCCUGAGCUGGACAAAAGCAUGUACAUGAGGAUCACCCAUGUUCAUGUACAAGCUUUUUGCUCGUCUUACG [salish99_208a_r3_078] (puzzle: Sensor for hsa-mir-208a)
673

Also, CUGCUACAUGAGGAUCACCCAUGUUGGAGUGAUGCAGGAUAUGUGGGACCAGAAGAUGAAACAGAAGGGCAAAGAA [JR_SS!_Sub005] (puzzle: Same State 1) please.
98.4

Subsequent entry: AACAAUCUAUCUGAGGAUAUCAUGAAAAAAACAUGAGGAUCACCCAUGUGCAGGAAAACUGCAUAUGAGAAGGCAGAUAGAUUGC [salish99_SS2_r3_004] (puzzle: Same State 2)
32.5

Here is the next sequence: GUUAAACAUGAGGAUCACCCAUGUCAAUGUAGUCGAGGAUAUGGGCAGCUAUGAGGCGUACUAGAAGGCGAAAAGU [Mat - Same State 1 - Mod of JL - D13] (puzzle: Same State 1)
117

// next record GGAGCCUGCACUGAGGAUAUUCAUAGUGUAACAUGAGGAUCACCCAUGUAGGCCCUGAGGCCUUGGGAGAAGGCAGUGCGGCUCG [JL-ss2-3.05 ViennaUCT mod] (puzzle: Same State 2)
27.9

* * *

A collection of sequences and their measured apparent KD of MS2 coat protein
- System: MS2 coat protein
- test_name: apparent KD of MS2 coat protein, switch OFF state (with FMN for OFF switches, without FMN for ON switches); designed switch direction (-1 OFF switch, 1 ON switch): -1; higher = weaker reporter binding
- test_parameters: FMN input: 0 or 200 uM; Eterna round: R93 (includes R88 designs)
Answer format: numeric, nM implied, no suffix.

record_sequence	quantitative_readout
AAGAAGUAAGGAUAUGCUGCUCGUCACAAAAGUGAUGAGUAGCAGAAGGUACAUGAGGAUCACCCAUGUAAAUA [Opal 32]	17.2
AAAAAGGCAGGAUAUACAUGAGGAUCACCCAUGUGCAAAAAAAAAAAAAAAAAAACAUGUAGAAGGGCCGAAAA [Skynet (1?)]	86.3
AAGAAGUCAGGAUAUGGUGCUCGUCACUUGCGUGAUGAGUACCAGAAGGGACAUGAGGAUCACCCAUGUAAAGA [Opal 21]	60
GAAAACAGAGGAUAUACAAAAUUAUGACGAAAGUCAUAAAAACAUGAGGAUCACCCAUGUAGAAGGCUGAAGAA [Meechl MS2 Ex2]	21.6
AAACACGGAGGAUAUACACCAUACAAACCUCUAAACAAAAAACAUGAGGAUCACCCAUGUAGAAGGCCGAACAA [Default title]	28

Now for a further sequence.
Quick one: apparent KD of MS2 coat protein for AAAUUGUCAGGAUAUCCUAUAACUCUAAAAUAGAGGAGAUAGGAGAAGGGACAUGAGGAUCACCCAUGUAAAAC [May 86] ?
61.7

* * *

- Test system: K4 kissing-loop RNA reporter;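 also: bound reporter read as fluorescence of individual clusters on recovered sequencing chips by microscopy, with normalized cluster intensities fitted with a binding model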
- test_name: apparent KD of K4 kissing-loop reporter; higher = weaker reporter binding
- test_parameters: Eterna round: R107; input ligand: tryptophan 2.4 mM
# if value of apparent KD of K4 kissing-loop reporter reaches 0.2 µM, tag true; if it stays below, tag false

Worked examples follow.
record_sequence	qualitative_label
GGUAGCAUGGCGGCCGCCACUAUAAAGAAUCCAAAGGAUUCUAGGUAGUGAUGUUACCAUAGCUAUAGGACCGGGCCAUGCUACC	false
GUAAGAUGAGGAGGAGGAUGAAUUACUGAAGGAGCGCAUAUAAAUGCAGGUAGGUCGCGGUAAAGAAGUAUAGUGAUGUUAUAUA [#20 K4 Arginine A Same State]	true

Test whether the sequence "AAAAUAAACCAGUGAUGUUGGUAGCCAGAUACCAGCGACGAAAGUCGCCCUUGGCAGCUGUGGACGUACAAAAUAAGUACGUCCU" records apparent KD of K4 kissing-loop reporter of 0.2 µM or higher.
true

And for UGAUAGGAGAGAAGGAGCGGGAGUGAUGUUCCCAAAGAUUGGUCUAGCAAAGCUGGACCCUCCCAGGUAGGUCGCUCUCCUAUCU [KL-XARG-B16] ?
true

Quick one: AUUAAUUUCAGAGGAUAUCGUAUUUAUAUUAUAUCUUUCCAUAUUUGCAGUGAUGUUGCAUUAAUUCGAGAAGGCUGAUUUAUAA [JR_Nu_ExcFMNB_Sub024]
false

Let us now turn to GGUGUUGUUUGUGCCGUUUUCCUCGUUCCUCGAGGACCGGUACGGCCGCCACUCGAGUGAUGUUUGGGUAGCGAUCCCUGUUAGU [Bdazzled - #9 Exc. Tryptophan A]
true
